System: mouse
Assay: MES - Maximum Electroshock Attack Test (anticonvulsive action, intraperitoneal)
Format: in vivo, mouse (male Carworth Farms Mice)
Conditions: Mus musculus, ip, read-out: Maximum Electro-Shock (MES) ED 50
property.measured: log10 of ED50 (log10 of the value in mg/kg)

{"columns": ["smiles.representation", "log10 of ED50"],
 "data": [
  ["CCOC(=O)Nc1ccc(NCc2ccc(Cl)cc2)nc1N.Cl", 1.16],
  ["CC(=O)Nc1ccc(NCc2ccc(F)cc2)nc1N.Cl", 1.93],
  ["CCOC(=O)Nc1ccc(NCc2ccccc2)nc1N.Cl", 1.29],
  ["CCOC(=O)Nc1ccc(NCc2cccc(F)c2)nc1N.Cl", 1.24],
  ["CCOC(=O)Nc1ccc(NCc2ccc(NC(C)=O)cc2)nc1N.Cl", 2.09],
  ["CCOC(=O)Nc1ccc(NCc2ccc(C(F)(F)F)cc2)nc1N.Cl", 1.45],
  ["CCOC(=O)Nc1ccc(NCc2ccc(S(N)(=O)=O)cc2)nc1N", 2.03],
  ["CCOC(=O)Nc1ccc(NCc2ccc(C(C)=O)cc2)nc1N", 1.73],
  ["CCOC(=O)Nc1ccc(NCc2c(C)cc(C)cc2C)nc1N.Cl", 0.29]
]}

----------
Test: Oral acute toxicity (LD 50) according to Miller & Tainter
Parameters: species or system white mouse
Conditions: in vivo, mouse, per os, observation time 24 hours

{"columns": ["smiles.representation", "unit.text", "LD50 at 24 h"],
 "data": [
  ["CCOC(=O)Nc1ccc(NCc2c(C)cc(C)cc2C)nc1N.Cl", "mg/kg", 127],
  ["CCOC(=O)Nc1ccc(NCc2cccc(F)c2)nc1N.Cl", "mg/kg", 2060],
  ["CCOC(=O)Nc1ccc(NCc2ccc(F)cc2)nc1N.Cl", "mg/kg", 617],
  ["CCOC(=O)Nc1ccc(NCc2ccccc2)nc1N.Cl", "mg/kg", 402]
]}

----------
# reported selectivity ratio; entries follow
Test: MES - Maximum Electroshock Attack Test (anticonvulsive action, intraperitoneal)
Format: in vivo, mouse (male Carworth Farms Mice)
Settings: in vivo, ip; mouse, intraperitoneal; number below the slanting line; read-out: quotient TD 50/ED 50 (MES), therapeutic breadth

{"columns": ["compound", "selectivity ratio"],
 "data": [
  ["CCOC(=O)Nc1ccc(NCc2ccc(C(C)=O)cc2)nc1N [D 10 558]", 1.37],
  ["CCOC(=O)Nc1ccc(NCc2ccccc2)nc1N.Cl [D 7175]", 2.3],
  ["CCOC(=O)Nc1ccc(NCc2ccc(C(F)(F)F)cc2)nc1N.Cl [D 11 208]", 2.73],
  ["CCOC(=O)Nc1ccc(NCc2ccc(NC(C)=O)cc2)nc1N.Cl [D 9663]", 1.15],
  ["CCOC(=O)Nc1ccc(NCc2c(C)cc(C)cc2C)nc1N.Cl [D 10 328]", 0.55]
]}

----------
Assay: s.c. Met - Subcutaneous Pentetrazole (Metrazole) Test (anticonvulsive action, intraperitoneal)
Assay type: in vivo, mouse (male Carworth Farms Mice)
Settings: in vivo, ip; mouse, intraperitoneal; number below the slanting line; read-out: quotient TD 50/ED 50 (MET), therapeutic breadth
Method: All experiments were carried out with male Carworth Farms Mice. The materials were tested in three dosages (30, 100, 300 mg/kg) (600 mg/kg was co-tested if a sufficient amount of the material was present). The materials in each case were dissolved in 30% aqueous polyethylene glycol solution. […]
Mark label 1 only when selectivity ratio stays strictly below 2. Values equal to the cut-off are label 0.

{"columns": ["smiles.representation", "assigned.label"],
 "data": [
  ["CC(=O)Nc1ccc(NCc2ccc(F)cc2)nc1N.Cl", "label 0"],
  ["CCOC(=O)Nc1ccc(NCc2ccc(S(N)(=O)=O)cc2)nc1N", "label 1"],
  ["CCOC(=O)Nc1ccc(NCc2ccc(C(F)(F)F)cc2)nc1N.Cl", "label 0"],
  ["CCOC(=O)Nc1ccc(NCc2ccc(F)cc2)nc1N.Cl", "label 1"],
  ["CCOC(=O)Nc1ccc(NCc2ccc(Cl)cc2)nc1N.Cl", "label 0"]
]}

----------
# reported selectivity ratio; entries follow
Experiment: s.c. Met - Subcutaneous Pentetrazole (Metrazole) Test (anticonvulsive action, intraperitoneal)
Assay type: in vivo, mouse (male Carworth Farms Mice)
Conditions: in vivo, ip; mouse, intraperitoneal; number below the slanting line; read-out: quotient TD 50/ED 50 (MET), therapeutic breadth

{"columns": ["molecule", "selectivity ratio"],
 "data": [
  ["CCOC(=O)Nc1ccc(NCc2ccc(NC(C)=O)cc2)nc1N.Cl [D 9663]", 2.49],
  ["CCOC(=O)Nc1ccc(NCc2c(C)cc(C)cc2C)nc1N.Cl [D 10 328]", 1.08],
  ["CCOC(=O)Nc1ccc(NCc2cccc(F)c2)nc1N.Cl [D 10 981]", 3.61],
  ["CCOC(=O)Nc1ccc(NCc2ccccc2)nc1N.Cl [D 7175]", 4.8],
  ["CCOC(=O)Nc1ccc(NCc2ccc(C(C)=O)cc2)nc1N [D 10 558]", 4]
]}

----------
# reported TD50; entries follow
Test: TD 50 - Neurotoxicity, rotating rod
Design: species or system mouse (male Carworth Farms Mice)
Settings: in vivo, ip, mouse, intraperitoneal

{"columns": ["smiles.representation", "TD50 / mg/kg"],
 "data": [
  ["CCOC(=O)Nc1ccc(NCc2ccc(C(C)=O)cc2)nc1N", 73.9],
  ["CCOC(=O)Nc1ccc(NCc2ccccc2)nc1N.Cl", 45.6],
  ["CCOC(=O)Nc1ccc(NCc2ccc(NC(C)=O)cc2)nc1N.Cl", 142],
  ["CCOC(=O)Nc1ccc(NCc2ccc(F)cc2)nc1N.Cl", 37.7],
  ["CC(=O)Nc1ccc(NCc2ccc(F)cc2)nc1N.Cl", 201],
  ["CCOC(=O)Nc1ccc(NCc2ccc(C(F)(F)F)cc2)nc1N.Cl", 76.3],
  ["CCOC(=O)Nc1ccc(NCc2ccc(Cl)cc2)nc1N.Cl", 23.9],
  ["CCOC(=O)Nc1ccc(NCc2c(C)cc(C)cc2C)nc1N.Cl", 1.09],
  ["CCOC(=O)Nc1ccc(NCc2cccc(F)c2)nc1N.Cl", 32.7],
  ["CCOC(=O)Nc1ccc(NCc2ccc(S(N)(=O)=O)cc2)nc1N", 530]
]}

----------
# reported selectivity ratio; entries follow
Test: MES - Maximum Electroshock Attack Test (anticonvulsive action, intraperitoneal)
Assay type: in vivo, mouse (male Carworth Farms Mice)
Conditions: in vivo, ip; mouse, intraperitoneal; number below the slanting line; read-out: quotient TD 50/ED 50 (MES), therapeutic breadth

{"columns": ["smiles.representation", "selectivity ratio"],
 "data": [
  ["CCOC(=O)Nc1ccc(NCc2ccc(F)cc2)nc1N.Cl", 1.67],
  ["CCOC(=O)Nc1ccc(NCc2cccc(F)c2)nc1N.Cl", 1.9],
  ["CCOC(=O)Nc1ccc(NCc2ccc(S(N)(=O)=O)cc2)nc1N", 4.9],
  ["CC(=O)Nc1ccc(NCc2ccc(F)cc2)nc1N.Cl", 2.38],
  ["CCOC(=O)Nc1ccc(NCc2ccc(Cl)cc2)nc1N.Cl", 1.64]
]}
